# Test Target: T1, CEA-derived … (SEQ ID NO: 71)-HLA-A*0201 complex (biotin on the C-terminal biotinylation tag (enzymatic, BirA))
# T1 construct: also called soluble biotinylated HLA-A2-peptide complex; not shown: C-terminal biotinylation tag that replaces the transmembrane and cytoplasmic domains
# Method Summary: Biacore SPR, pMHC immobilised
Listing of recorded koff by entry.

Binder | koff
SEQ ID NO 55 (receptor) MAGHLPKPTLWAEPGSVITMDQPVTLRCQGGQETQEYRLYREKKTAPWITRIPQELVKKGQFPIPSITWEHAGRYRCYYGSDTSQWSASSDPLELVVTGVYIKPTLSAQPSPVVNSGGNVTLQCDSQVAFDGFILCKEGEDEHPQCLNSQPHARGSSRAIFSVGPVSPSRRWWYRCYAYPIWTPYEWSSGSDLLELDVDG | ≤ 2 s⁻¹
SEQ ID NO 30 (receptor) MAGHLPKPTLWAEPGSVITQGSPVTLRCQGGQETQEYRLYREKKTAPWITRIPQELVKKGQFPIPSITWEHAGRYRCYYGSDTSQWSASSDPLELVVTGVYIKPTLSAQPSPVVNSGGNVTLQCDSQVAFDGFILCKEGEDEHPQCLNSQPHARGSSRAIFSVGPVSPSRRWWYRCYAYPIWTPYEWSLPSDLLELDVDG | ≤ 2 s⁻¹
SEQ ID NO 24 (receptor) MHLPKPTLWAEPGSVITLQSPVTLRCQGGQETQQYRLYREKKTAPWITRIPQELVKKGQFPIPSITWEHAGRYRCYYGSDTRQWSASSDPLELVVTGVYIKPTLSAQPSPVVNSGGNVTLQCDSQVAFDGFILCKEGEDDHPQCLNSQPHARGSSRAIFSVGPVSPSRRWRYRCYAYPIWTPYEWSLPSDLLELDVDG | ≤ 2 s⁻¹
